Target: T1, human PVRIG-his (AcroBiosystems, Cat NO. PVG-H52H4) (human, UniProt Q6DKI7 41-171, limits assumed)
T1 construct: also called human PVRIG protein
T1 sequence (looked up): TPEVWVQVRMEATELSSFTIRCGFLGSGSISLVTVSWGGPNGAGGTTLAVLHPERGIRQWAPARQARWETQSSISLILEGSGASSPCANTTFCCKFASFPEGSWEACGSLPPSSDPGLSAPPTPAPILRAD
Assay: competition ELISA, PVRIG-His coated, competitor human PVRL2-mFc
Method: The ELISA plate was pre-coated with 100 μL/well of 0.5 μg/mL human PVRIG-his protein (AcroBiosystems, Cat NO. PVG-H52H4). The tested anti-PVRIG antibodies were diluted from the highest concentration of 16 nM (two-fold concentration). […] After adding a termination solution to terminate the reaction, the absorbance value was read by a microplate reader (MD i3×). […] The IC50 value was calculated by using a Four Parameter Logistic Fit (GraphPadPrism9). […]
# % relative activity (AUC) parental antibody/test antibody annotations
Answer with a number only, understood to be in %.

// worked examples, % relative activity (AUC) parental antibody/test antibody included
Binder | U | Readout value
PVRIG-A118-H4 (Fc fusion, humanized variant of PVRIG-A118; also called A118.VH4; not shown: constant part not restated for the humanized forms; parents are VHH-hinge-CH2-CH3 of human IgG1; detected by anti-human) EVQLVESGGGLVQPGGSLRLSCAASETYFDLYVMGWYRQAPGKDRELVATITYTGSIKYVDSVKGRFTISRGDAKNSLSLQMNSLRAEDTAVYYCNADPSGLGRKVYWGQGTMVTVSS | % | 112
PVRIG-A50-H2a (Fc fusion, humanized variant of PVRIG-A50; also called A50.VH2a; not shown: constant part not restated for the humanized forms; parents are VHH-hinge-CH2-CH3 of human IgG1; detected by anti-human) EVQLVESGGGLVQPGGSLRLSCAASGFTFSYYDMSWVRQAPGKGLEWVSTINSNAGRTSYVDSVKGRFTISRDNTKNTLYLQMNSLRAEDTAVYYCVEGDPHNFGLESLSLRDFGSWGQGTMVTVSS | % | 86.4
PVRIG-A50-H1e (Fc fusion, humanized variant of PVRIG-A50; also called VH1e; not shown: constant part not restated for the humanized forms; parents are VHH-hinge-CH2-CH3 of human IgG1; detected by anti-human) EVQLVESGGGLVQPGGSLRLSCAASGFTFSYYDMSWVRQAPGKGLEWVSTINSNAGRTSYVDSVKGRFTISRDNSKNTLYLQMNSLRAEDTAVYYCVEGDPHNFGLESLSLRDFGSWGQGTMVTVSS | % | 86.2

Note: attention shifts to another entry.
For PVRIG-A118-H1 (Fc fusion, humanized variant of PVRIG-A118; also called A118.VH1; not shown: constant part not restated for the humanized forms; parents are VHH-hinge-CH2-CH3 of human IgG1; detected by anti-human) EVQLVESGGGLVQPGGSLRLSCAASETYFDLYVMGWYRQAPGKDRELVATITYTGSIYYVDSVKGRFTISRDNAKNSLYLQMNSLRAEDTAVYYCNADPSGLGRKVYWGQGTMVTVSS , what is its reported % relative activity (AUC) parental antibody/test antibody?
121

All values here come from patent US20240343803A1.
